src = the nanobody polyreactivity screen of Harvey et al. (2022)

# ASSAY PROCEDURE: yeast display, Sf9 membrane polyspecificity reagent, FACS + sequencing; frameworks hold sequencing errors
ENDPOINT LABEL: polyreactivity (PSR sort gate)

# RESIDUES, polyreactivity (PSR sort gate)
records = [
    ("QVQLVESGGGLVQAGGSLRLSCAASGFTFNANAMGWYRQAPGKERELVSVITRSGGRTYYADSVKGGFTISRDTAKNTVYLQMNSLKPEDSAVYYCATEGPSRVYQGTDSASDYWGQGTQVTVSS", "high polyreactivity"),
    ("QVQLVESGGGLVQAGGSLRFSCAASGLTFSWNAMGWDRQAPGQERELVAAITSSGTSTYYADSVKGRFSISRDNAKITVYLQMHSLKPEDTAVYYGAAEGDYWGWEDDYWGQGTQVTVSS", "high polyreactivity"),
    ("QVQLVESGGGLVQAGGSLRLSCAASGRTFWYYTMGWYIQAPGKERELVASITYRGGSTYYADSVKGRFTISRDNAKNTVYLQMNSLKPEDTAVYYCNARYKRYSYDYWGQGTQVTVSS", "high polyreactivity"),
    ("QVQLVESGGGLVQAGGSLRLSCAASGRTFSGYAMGWYRPAPGKERELVAAITSGGNTYYADSVKGRFTISRDNAKNTVYFQMNILKPEDTAVYYCATVYADESGIEGYSWGQGTQVTVSS", "low polyreactivity"),
    ("QVQLVESGGGLVQAGGSLRLSCAASGNIFYVYAMGWYRQAPGKERELVATITWRGGNTYYADSVKGRFTISRDNAKNTVDLQMNSLTPEDTAVYYCAAYVGYTRAYIGQFYAYDYWGQGTQVTVSS", "low polyreactivity"),
]

Which value of polyreactivity (PSR sort gate) has been reported for QVQLVESGGGLVQAGGSLRLSCAASGRIFVVYVMGWYRQATGKEREFVAAITWGGGNTYYADSVKGRFTISRDNAKNTVYLQMNSLKPEDTAVYYCAAAPRKYVWMDYWGQGTQVTVSS in the records? low polyreactivity

// query: QEQLQESGSGLVQAGGSLRLSCAASGNIFQDWVMGWYRQAPGKERELVAAISPGAITYYADSVKGRFTISRDNAKYTVYLQTNSLKPEDTAVYYCAAYYIVEYLHGYWGQGTRVTVSS low polyreactivity

QVQLQESGGGLEQAGGSLRLSCAASGYISDIGPMGWSRQAPGKEREFVATIVVGSTTNYADSVKGRFTISRDNAKNTVYLQPESGRFRGVLLRGWLLAVGKFTYWGQGTQETVSS , same question. low polyreactivity

Try QVQLVESGGGLVQAGGSLRLSCAASGFIFPGHAMGWYRQAPGKERELVAAISTSGGSTYYADSVKGRFTISRDNAKNTVYLQMNSLKPEDTAVYYCATKRPYVDDYGYWGQGTQVTVSS next. high polyreactivity

Try QVQLVESGGGLVQAGGSLRLSCAASGFTFDANAMGWYRQAPGKERELVAAITRFGSTFYADSVKGRFTISRDNAKNTVYLQMNSLKPEDTAVYYCNAARDHVSGYDYWGQGTQVTVSS next. low polyreactivity

Please answer likewise for QVQLVESGGGLVQAGGSLRLSCAASGFTFRYYAMGWYRQAPGKERELVAAISWRGGRTYYADSVKGRFTISRDNAKNTVYIQMNSLKPEDTAVYYCAALRERQTRGNYWGQGTQVTVSS high polyreactivity
